Here the recorded pKd is given for each entry.
biological target: Recombinant canine IL-31 produced in CHO cells (canine); assay: SPR (Biacore), IL-31 amine-coupled to the chip, mAb in solution, 1:1 fit
Sequence (chain, as listed by the source limits assumed, form in doubt): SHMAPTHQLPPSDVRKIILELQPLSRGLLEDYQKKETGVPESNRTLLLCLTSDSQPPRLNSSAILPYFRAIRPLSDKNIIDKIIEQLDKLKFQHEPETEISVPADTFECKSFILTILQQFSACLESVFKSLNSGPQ
FYI, pKd means -log10 of a concentration in mol per litre.

Before answering, review these 2 worked examples.
Mouse 11E12 (antibody, V domains shown) VH: QVQLQQSGAELVKPGASVKLSCKASGYTFKYYDINWVRQRPEQGLEWIGWIFPGDGGTKYNETFKGKATLTTDKSSSTAYMQLSRLTSEDSAVYFCARGGTSVIRDAMDYWGQGTSVTVSS VL: DIVLTQSPASLAVSLGQRATISCRASESVDNYGISFMHWYQQKPGQPPKLLIYRASNLESGIPARFSGSGSRTDFTLTINPVETDDVATYYCQQSNKDPLTFGAGTKLELK | 12.05
Caninized 19D07 (antibody, V domains shown) VH: EVQLVESGGDLVKPGGSLRLSCVASGFTFSSYDMSWVRQAPGKGLQWVATITSGGGYTYSADSVKGRFTISRDNARNTLYLQMNSLRSEDTAVYYCARQNWVVGLAYWGQGTLVTVSS VL: EIVMTQSPASLSLSQEEKVTITCKSSQSLLNSGNQKNYLAWYQQKPGQAPKLLIYGASTRESGVPSRFSGSGSGTDFSFTISSLEPEDVAVYYCQNDYSYPYTFGQGTKLEIKR | 9.03

*Q* Entry 11E12 Heterochimera (antibody, V domains shown) VH: EVQLVQSGAEVKKPGASVKVSCKTSGYTFKYYDINWVRQAPGAGLDWMGWIFPGDGGTKYNETFKGRVTLTADTSTSTAYMELSSLRAGDIAVYYCARGGTSVIRDAMDYWGQGTLVTVSS VL: DIVLTQSPASLAVSLGQRATISCRASESVDNYGISFMHWYQQKPGQPPKLLIYRASNLESGIPARFSGSGSRTDFTLTINPVETDDVATYYCQQSNKDPLTFGAGTKLELKR : reported pKd = ?
*A* 11.30

*Q* Entry Caninized 34D03 (antibody, V domains shown) VH: EVQLVESGGDLVKPGGSLRLSCVASGFTFSNYGMSWVRQAPGKGLQWVATISYGGSYTYYPDNIKGRFTISRDNAKNTLYLQMNSLRAEDTAMYYCVRGYGYDTMDYWGQGTLVTVSS VL: EIVMTQSPASLSLSQEEKVTITCKASQSVSFAGTGLMHWYQQKPGQAPKLLIYRASNLEAGVPSRFSGSGSGTDFSFTISSLEPEDVAVYYCQQSREYPWTFGQGTKLEIKR : reported pKd = ?
*A* 10.54

*Q* Entry Caninized 11E12 13 (antibody, V domains shown) VH: EVQLVQSGAEVKKPGASVKVSCKTSGYTFKYYDINWVRQAPGAGLDWMGWIFPGDGGTKYNETFKGRVTLTADTSTSTAYMELSSLRAGDIAVYYCARGGTSVIRDAMDYWGQGTLVTVSS VL: DIVMTQTPLSLSVSPGEPASISCRASESVDNYGISFMHWFQQKPGQSPQLLIYRASNLESGVPDRFSGSGSGTDFTLRISRVEADDAGVYYCQQSNKDPLTFGAGTKLEIKR : reported pKd = ?
*A* 11.29

*Q* Entry Chimeric 34D03 (antibody, V domains shown) VH: EVQLVESGGDLVKPGGSLKLSCAASGFSFSNYGMSWVRQTPDKRLEWVATISYGGSYTYYPDNIKGRFTISRDNAKNTLYLQMSSLKSEDTAMYYCVRGYGYDTMDYWGQGTSVTVSS VL: DILLTQSPASLAVSLGQRAIISCKASQSVSFAGTGLMHWYQQKPGQQPKLLIYRASNLEAGVPTRFSGSGSRTDFTLNIHPVEEEDAATYFCQQSREYPWTFGGGTKLEIKR : reported pKd = ?
*A* 11.33
